tested on: Hepatocyte; test: Cytotoxicity against Macaca mulatta hepatocytes assessed as cell viability measured after 48 hrs by MTT assay; type: toxicity, cell-based; settings: rhesus monkey, 48 h
Listed here are compounds together with their documented CC50.
Reply with just the number (in µM).

Name the reported CC50 value associated with the compound O=c1c2cc(F)c(Oc3ccc(OC(F)(F)F)cc3)cc2[nH]c2cc(Cl)cc(F)c12 0.58

Name the reported CC50 value associated with the compound O=c1c2ccc(Oc3ccc(OC(F)(F)F)cc3)cc2[nH]c2ccc(Cl)c(F)c12 4.58

Name the reported CC50 value associated with the compound CC(C)(C)OC(=O)N1CCC(Oc2ccc3c(=O)c4c(Cl)cc(F)cc4[nH]c3c2)CC1 4.73

Name the reported CC50 value associated with the compound O=c1c2ccccc2[nH]c2cc(Oc3ccc(OC(F)(F)F)cc3)ccc12 3.16

Name the reported CC50 value associated with the compound O=c1c2ccc(OCc3ccc(C(F)(F)F)cc3)cc2[nH]c2cc(Cl)cc(F)c12 2.13

---
Name the reported CC50 value associated with the compound CC(C)(C)OC(=O)N1CCC(Oc2ccc3c(=O)c4c(F)cc(Cl)cc4[nH]c3c2)C1 (stereo not given) 12.3

Name the reported CC50 value associated with the compound COc1ccc(Oc2ccc3c(=O)c4c(F)cc(Cl)cc4[nH]c3c2)cc1 10.8

Name the reported CC50 value associated with the compound COc1cc(C)c2c(Oc3cccc(C(F)(F)F)c3)c(OC)cc(NC(C)CCCN)c2n1 (stereo not given) 15.2

Name the reported CC50 value associated with the compound CC(C)(C)OC(=O)N1CCC(Oc2ccc3c(=O)c4c(F)cc(Cl)cc4[nH]c3c2)CC1 2.17

Name the reported CC50 value associated with the compound O=c1c2c([nH]c3cc(Oc4ccc(OC(F)(F)F)cc4)ccc13)CCCC2 0.61

Name the reported CC50 value associated with the compound O=c1c2c([nH]c3cccc(Oc4ccc(OC(F)(F)F)cc4)c13)CCCC2 6

* * *

Listed here are compounds together with their documented IC50.
tested on: Plasmodium cynomolgi; test: Antiplasmodial activity against schizont Plasmodium cynomolgi B strain infected in Macaca mulatta hepatocytes incubated with sporozoite containing salivary gland homogenate obtained from dissected Anopheles dirus mosquitoes (infected with Plasmodium cynomolgi B strain) treatment started on day 4 post infection and continued daily for 4 days into fresh changed media until day 8 assessed as Liver stage (LS) activity by measuring radical cure mode by immunofluorescent staining analysis; format: functional, organism-based; settings: Hepatocyte

Solved cases below.
Name the reported IC50 value associated with the compound O=c1c2ccc(Oc3cccc(C(F)(F)F)c3)cc2[nH]c2cc(F)c(Cl)cc12 > 20 µM

Name the reported IC50 value associated with the compound O=c1c2c([nH]c3cccc(Oc4ccc(OC(F)(F)F)cc4)c13)CCCC2 2.92 µM

Name the reported IC50 value associated with the compound O=c1c2ccc(OCc3ccc(OC(F)(F)F)cc3)cc2[nH]c2cc(Cl)cc(F)c12 0.28 µM

Name the reported IC50 value associated with the compound CN1CCC(Oc2ccc3c(=O)c4c(F)cc(Cl)cc4[nH]c3c2)CC1 9.88 µM

---
Name the reported IC50 value associated with the compound COc1ccc(Oc2ccc3c(=O)c4c(F)cc(Cl)cc4[nH]c3c2)cc1 0.94 µM

Name the reported IC50 value associated with the compound CCCCN(CCCC)CCCOc1ccc2c(=O)c3c([nH]c2c1)CCCC3 > 20 µM

Name the reported IC50 value associated with the compound O=c1c2ccc(OCc3cccc(OC(F)(F)F)c3)cc2[nH]c2ccc(Cl)c(F)c12 3.26 µM

Name the reported IC50 value associated with the compound O=c1c2c([nH]c3cc(Oc4ccc(OC(F)(F)F)cc4)c(F)cc13)CCCC2 2.41 µM

Name the reported IC50 value associated with the compound CCCN(CCC)CCOc1ccc2c(=O)c3c([nH]c2c1)CCCC3 > 20 µM

Name the reported IC50 value associated with the compound CCCN(CCC)CCNc1ccc2c(=O)c3c([nH]c2c1)CCCC3 > 20 µM

Name the reported IC50 value associated with the compound CO[C@@H]1[C@@H](OC)[C@H](C)[C@@](O)(CC(=O)O)O[C@H]1[C@H](C)[C@H]1O[C@@]2(CC[C@@](C)([C@H]3CC[C@@](C)([C@@H]4O[C@@H]([C@H]5O[C@](C)(O)[C@H](C)C[C@@H]5C)C[C@@H]4O[C@@H]4C[C@H](OC)[C@@H](OC)[C@H](C)O4)O3)O2)C[C@H](O)[C@H]1C 0.04 µM

Values were extracted from ChEMBL document CHEMBL6134844.
